Entry source: patent EP0829478A2

# ASSAY_INFO: Conversion of the azolium compounds to ketoconazole / itraconazole on incubation in human plasma
# Type: in vitro ADME
# SETUP_CONDITIONS: remaining parent compound, 10µg/ml, 37°C, incubation time 20 min, read-out: Observed (%) Comp. I

{"COMPOUND": "CC(=O)Oc1c(C)cc(C[n+]2ccn(CC3(c4ccc(Cl)cc4Cl)OCC(COc4ccc(N5CCN(C(C)=O)CC5)cc4)O3)c2)cc1C (stereo not shown)", "RESULT_UNITS": "%", "remaining at 20 min": 19}

###

# ASSAY_INFO: Water solubility (Table 1)
# Type: physicochemical
# SETUP_CONDITIONS: distilled water, water
Listed molecules paired with reported solubility
READOUT_NAME: solubility (mg/mL)

{"MOLECULE": "CC(=O)N1CCN(c2ccc(OC[C@H]3CO[C@](Cn4cc[n+](Cc5cc(C)c(OC(=O)C(C)C)c(C)c5)c4)(c4ccc(Cl)cc4Cl)O3)cc2)CC1.[Br-] (relative stereo) [Example 5]", "READOUT_NAME": "solubility", "COMPARATIVE_SIGN": ">", "RECORDED_RESULT": 1}
{"MOLECULE": "CO[C@H]1[C@@H](Cn2c[n+](Cc3cc(C)c(OC(C)=O)c(C)c3)cn2)[C@H](CCc2ccc(C)cc2)CCC1(C)C.[Br-] [Example 8]", "READOUT_NAME": "solubility", "COMPARATIVE_SIGN": "=", "RECORDED_RESULT": 14}

###

# ASSAY_INFO: Water solubility (Table 1)
# Assay type: physicochemical
# SETUP_CONDITIONS: solvent a = distilled water; read-out: solubility

{"COMPOUND": "CC(=O)Oc1c(C)cc(C[n+]2ccn(CC(OCc3ccc(Cl)cc3Cl)c3ccc(Cl)cc3Cl)c2)cc1C (racemic)", "solubility": "> 1000 µg/mL"}
{"COMPOUND": "COc1cc(C[n+]2ccn(CC3(c4ccc(Cl)cc4Cl)OCC(COc4ccc(N5CCN(C(C)=O)CC5)cc4)O3)c2)ccc1OC(C)=O (stereo not drawn)", "solubility": "5000 µg/mL"}
{"COMPOUND": "CC(=O)Oc1c(Cl)cc(C[n+]2ccn(CC3(c4ccc(Cl)cc4Cl)OCC(COc4ccc(N5CCN(C(C)=O)CC5)cc4)O3)c2)cc1Cl (stereo not drawn)", "solubility": "6500 µg/mL"}

###

As shown below, each of these compounds has a reported solubility value.
# ASSAY_INFO: Water solubility (Table 1)
# Format: physicochemical
# SETUP_CONDITIONS: mcilvaine buffer, pH 8.02, aqueous buffer

{"COMPOUND": "CCC(C)n1ncn(-c2ccc(N3CCN(c4ccc(OCC5COC(Cn6c[n+](Cc7cc(C)c(OC(=O)c8ccccc8)c(C)c7)cn6)(c6ccc(Cl)cc6Cl)O5)cc4)CC3)cc2)c1=O.[Br-] (centres unmarked) [Example 3]", "solubility": "400 µg/mL"}
{"COMPOUND": "CCC(C)n1ncn(-c2ccc(N3CCN(c4ccc(OCC5COC(Cn6c[n+](Cc7cc(C)c(OC(=O)c8cccnc8)c(C)c7)cn6)(c6ccc(Cl)cc6Cl)O5)cc4)CC3)cc2)c1=O.[Br-] (centres unmarked) [Example 2]", "solubility": "400 µg/mL"}

###

# ASSAY_INFO: Conversion of the azolium compounds to ketoconazole / itraconazole on incubation in human plasma
# Assay type: in vitro ADME
# SETUP_CONDITIONS: ketoconazole formed, 10µg/ml, 37°C, incubation time 10 min, read-out: Observed (%) KCZ
# Description: The compounds of formula I were incubated with human plasma at a concentration of 10µg/ml at 37°C for up to 120 min.
READOUT_NAME: metabolised at 10 min (%)

{"COMPOUND": "CC(=O)N1CCN(c2ccc(OCC3COC(Cn4cc[n+](Cc5ccc(OC(=O)C(C)(C)C)cc5)c4)(c4ccc(Cl)cc4Cl)O3)cc2)CC1 (stereo not shown) [Example 10]", "RESULT_UNITS": "%", "RECORDED_RESULT": 80}
